# credit: paper PMC4324837

- Test system: CMV AD169IE2-YFP
- procedure details: in vitro
- Format: cell-based, Human cytomegalovirus
- condition info: human, Selective Ratio (CC50/EC50), MRC5 cells, AD169IE2-YFP
quantity: selectivity ratio

>>> obs_value("COc1cc([C@@H]2c3cc4c(cc3[C@H](O)[C@H]3COC(=O)[C@H]23)OCO4)cc(OC)c1OC")
"> 192"
>>> obs_value("C[C@@H]1O[C@@H](O[C@H]2CC[C@]3(C=O)[C@H]4CC[C@]5(C)[C@@H](C6=CC(=O)OC6)CC[C@]5(O)[C@@H]4CC[C@]3(O)C2)[C@H](O)[C@H](O)[C@H]1O")
"> 454"
